Property: displacement; scope: individual compounds
system_name: Bcl-2-like protein 10 (Homo sapiens) (UniProt Q9HD36)
Sequence (Q9HD36 whole entry, looked up): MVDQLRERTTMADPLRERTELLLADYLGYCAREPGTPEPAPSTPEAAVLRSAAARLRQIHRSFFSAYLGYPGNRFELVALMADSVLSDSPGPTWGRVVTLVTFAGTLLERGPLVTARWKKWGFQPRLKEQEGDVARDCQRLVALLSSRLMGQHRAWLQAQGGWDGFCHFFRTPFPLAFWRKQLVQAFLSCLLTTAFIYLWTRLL
procedure_text: TR3 peptide-Bcl-B binding displacers, biochemical primary FP assay, phenotype converters (AID 1240);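 also: 0% = Bcl-B with tracer peptide and DMSO and 100% = tracer peptide lacking Bcl-B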
conditions_used: GST-Bcl-B / FITC-TR3 peptide fluorescence polarization; stronger effect = higher value; compound at 3.75 mg/L
Hit rate of the full screen: of about 50,000 compounds, about 800 (1.6%) showed an effect of 50% or more. Shown is part of a subset that was picked to be rich in strong results.
Lab book: enter the figure in %, no units written.

1) COCCCNC(=O)CN(c1cccc([N+](=O)[O-])c1)S(=O)(=O)c1ccccc1
11.1
2) Clc1ccc(Nc2nc(-c3ccncc3)nc3ccccc23)cc1
109
3) O=C(Nc1cc(-c2nc3ccccc3s2)ccc1Cl)c1ccc([N+](=O)[O-])cc1
90.8

Exercise: Please look up its displacement: N#Cc1ccccc1NC(=O)c1ccc(-c2ccccc2)cc1
Solution: 12.6

Exercise: Then this compound: O=C(CCN1C(=O)c2ccccc2C1=O)NCC1CCCO1 (configuration not stated)
Solution: 9.6

Exercise: Then this compound: CC(=O)Nc1cc(-c2nc3ccccc3s2)ccc1Cl
Solution: 11.6

----------
system_name: Bcl-2-like protein 10 (Homo sapiens) (UniProt Q9HD36)
procedure_text: TR3 peptide-Bcl-B binding displacers, biochemical primary FP assay, phenotype converters (AID 1240);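 also: 0% = Bcl-B with tracer peptide and DMSO and 100% = tracer peptide lacking Bcl-B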
conditions_used: GST-Bcl-B / FITC-TR3 peptide fluorescence polarization; stronger effect = higher value; compound at 3.75 mg/L
Among all 50,000 compounds or so, about 800 (1.6%) showed an effect of 50% or more. The entries come from a sample that favours strong results as a whole.
Decide using displacement: a value greater than or equal to 70% is condition met, a smaller one is condition not met.

As a guide, the following entries are already answered.
1) CCOC(=O)c1ccc(-n2c(C)cc(C=C3C(=O)c4ccccc4C3=O)c2C)cc1
condition not met
2) Cc1cccc(-n2c(C)cc(C=C3C(=O)c4ccccc4C3=O)c2C)c1
condition met
3) CCOC(=O)C1=C(C)N=c2s/c(=C\c3ccc(N4CCOCC4)o3)c(=O)n2C1c1ccc(SC)cc1 (stereo unspecified)
condition not met
4) CCOC(=O)C1=C(C)N=c2s/c(=C\c3ccc(Br)o3)c(=O)n2C1c1ccc(F)cc1 (stereo unspecified)
condition not met
5) CCOC(=O)C1=C(C)N=c2s/c(=C\c3ccc(C)o3)c(=O)n2C1c1cccc(OC)c1 (stereo unspecified)
condition met

Exercise: Dear colleague, could you confirm whether Cc1cc(C=C2C(=O)c3ccccc3C2=O)c(C)n1-c1ccc(Cl)cc1 has displacement at or above 70%?
Solution: condition met

----------
system_name: Bcl-2-like protein 10 (Homo sapiens) (UniProt Q9HD36)
procedure_text: TR3 peptide-Bcl-B binding displacers, biochemical primary FP assay, phenotype converters (AID 1240);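 also: 0% = Bcl-B with tracer peptide and DMSO and 100% = tracer peptide lacking Bcl-B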
conditions_used: GST-Bcl-B / FITC-TR3 peptide fluorescence polarization; stronger effect = higher value; compound at 3.75 mg/L
Screen size: about 50,000 compounds; about 800 (1.6%) showed an effect of 50% or more. The sample as a whole holds a higher share of strong results than the screen did.
Property: displacement; scope: individual compounds
Lab book: enter the figure in %, no units written.

Exercise: Please look up its displacement: COc1ccc(/C=C/C(=O)NCc2ccc(C)cc2)cc1OC
Solution: 9.4

Exercise: Then this compound: O=c1oc2cc(O)c([N+](=O)[O-])cc2cc1-c1csc(-c2cc3ccccc3oc2=O)n1
Solution: -10

Exercise: Then this compound: CCOc1ccc(-c2csc(-c3cc4ccccc4oc3=O)n2)cc1
Solution: -2.8

Exercise: Then this compound: O=C1C(=O)N(c2nncs2)C(c2ccc(F)cc2)/C1=C(\O)c1ccccc1 (centres undefined)
Solution: 13.6

Exercise: Then this compound: O=C(Oc1cccc(/C=C2/SC(=S)N(c3ccccc3)C2=O)c1)c1ccco1
Solution: -17.2

Exercise: Then this compound: COc1ccc(OC)c(NC(=O)CN(c2ccc(Br)cc2)S(C)(=O)=O)c1
Solution: -12.8

Exercise: Then this compound: COc1cccc2cc(-c3nc(-c4ccc(Cl)c(Cl)c4)cs3)c(=O)oc12
Solution: 0.1

Exercise: Then this compound: CN(C)c1ccc(/C=N/NC(=O)c2ccc(CN3CCOCC3)cc2)cc1Br
Solution: 6.3

Exercise: Then this compound: Cc1ccc(/C(O)=C2\C(=O)C(=O)N(c3nncs3)C2c2cccc(Br)c2)cc1 (centres undefined)
Solution: 18.7

----------
system_name: Bcl-2-like protein 10 (Homo sapiens) (UniProt Q9HD36)
procedure_text: TR3 peptide-Bcl-B binding displacers, biochemical primary FP assay, phenotype converters (AID 1240);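 also: 0% = Bcl-B with tracer peptide and DMSO and 100% = tracer peptide lacking Bcl-B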
conditions_used: GST-Bcl-B / FITC-TR3 peptide fluorescence polarization; stronger effect = higher value; compound at 3.75 mg/L
About 800 (1.6%) of roughly 50,000 compounds showed an effect of 50% or more. This is one part of a sample in which strong results are shown more often than they occur.
Property: displacement; scope: individual compounds
Lab book: enter the figure in %, no units written.

// known answers, use as guide
1. O=C(c1ccc([N+](=O)[O-])cc1)N1CCN(c2nc(-c3ccccc3)c3cc(Cl)ccc3n2)CC1
17.5
2. Cc1onc(-c2ccccc2Cl)c1C(=O)NC12CC3CC(CC(C3)C1)C2
1
3. O=CN1CCN(c2nc(-c3ccccc3)c3cc(Cl)ccc3n2)CC1
113
4. COCCNCCOc1c(C)cc(Cl)cc1C
7.2

Next compound, displacement to be filled in.
Exercise: Please look up its displacement: Brc1ccc2nc(N3CCNCC3)nc(-c3ccccc3)c2c1
Solution: -8.1

----------
system_name: Bcl-2-like protein 10 (Homo sapiens) (UniProt Q9HD36)
procedure_text: TR3 peptide-Bcl-B binding displacers, biochemical primary FP assay, phenotype converters (AID 1240);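 also: 0% = Bcl-B with tracer peptide and DMSO and 100% = tracer peptide lacking Bcl-B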
conditions_used: GST-Bcl-B / FITC-TR3 peptide fluorescence polarization; stronger effect = higher value; compound at 3.75 mg/L
Hit rate of the full screen: of about 50,000 compounds, about 800 (1.6%) showed an effect of 50% or more. The sample as a whole holds a higher share of strong results than the screen did.
reported_endpoint: displacement

1) Cc1cc(C=C2C(=O)c3ccccc3C2=O)c(-c2ccccc2)n1-c1ccccc1
68%
2) Cc1ccsc1/C=C1\SC(N2CCN(C)CC2)=NC1=O
3%
3) Cc1cc(/C=N/N2C(=O)c3ccccc3C2=O)c(C)n1-c1ccccc1
11.4%

Next molecule, displacement to be filled in.
Exercise: Find displacement (Bcl-2-like protein 10 (Homo sapiens) (UniProt Q9HD36)) for the entry CC(=O)NC1=NC(=O)/C(=C\c2ccc(N(C)C)cc2)S1
Solution: -23.2%

----------
Property: displacement; scope: individual compounds
system_name: Bcl-2-like protein 10 (Homo sapiens) (UniProt Q9HD36)
procedure_text: TR3 peptide-Bcl-B binding displacers, biochemical primary FP assay, phenotype converters (AID 1240);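 also: 0% = Bcl-B with tracer peptide and DMSO and 100% = tracer peptide lacking Bcl-B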
conditions_used: GST-Bcl-B / FITC-TR3 peptide fluorescence polarization; stronger effect = higher value; compound at 3.75 mg/L
The campaign covered roughly 50,000 compounds. About 800 (1.6%) showed an effect of 50% or more. This is one part of a sample in which strong results are shown more often than they occur.
Lab book: enter the figure in %, no units written.

// known answers, use as guide
1. CCOC(=O)C1=C(O)/C(=C/c2ccc(Cl)cc2)SC1=Nc1ccc(C)cc1
5.9
2. O=C1NC(=O)N(c2ccc(Cl)cc2)C(=O)/C1=C/c1ccc(O)c(Br)c1
-8.4
3. CCOc1ccc(NC2=C(Cl)C(=O)N(c3ccc(Br)cc3)C2=O)cc1
-4.8
4. CCOC(=O)C1=C(O)/C(=C/c2ccc(N(C)C)cc2)SC1=Nc1ccc([N+](=O)[O-])cc1
15.5
5. CCOC(=O)C1=C(O)/C(=C/c2ccc(O)cc2)SC1=Nc1ccc(Cl)cc1
104

Next compound, displacement to be filled in.
Exercise: Please look up its displacement: CCOC(=O)C1=C(O)/C(=C/c2ccccc2)SC1=Nc1cccc2ccccc12
Solution: 14.5

----------
Property: displacement; scope: individual compounds
system_name: Bcl-2-like protein 10 (Homo sapiens) (UniProt Q9HD36)
procedure_text: TR3 peptide-Bcl-B binding displacers, biochemical primary FP assay, phenotype converters (AID 1240);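 also: 0% = Bcl-B with tracer peptide and DMSO and 100% = tracer peptide lacking Bcl-B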
conditions_used: GST-Bcl-B / FITC-TR3 peptide fluorescence polarization; stronger effect = higher value; compound at 3.75 mg/L
In all, about 50,000 compounds went through this assay and about 800 (1.6%) showed an effect of 50% or more. The sample as a whole holds a higher share of strong results than the screen did.
Write your answer as a measured quantity: the number, then the unit.

Exercise: Please look up its displacement: COc1ccc(C(=O)N2CCN(Cc3ccccc3F)CC2)cc1OC
Solution: 56%

Exercise: Then this compound: CC(C)(CN1CCOCC1)NS(=O)(=O)c1ccc(Cl)cc1
Solution: 7.4%

Exercise: Then this compound: O=C(NN1C(=O)/C(=C/c2ccc(O)c(O)c2)SC1=S)c1ccccc1Br
Solution: 73%

Exercise: Then this compound: O=c1c2ccccc2nc(/C=C/c2ccccc2[N+](=O)[O-])n1-c1cccc2ccccc12
Solution: -7%

Exercise: Then this compound: Clc1ccc(N2CCN(N=Cc3c(Cl)cccc3Cl)CC2)cc1
Solution: 8.5%
